Values compiled from patent US20240174744A1.

SYSTEM_TESTED: T1, human iRhom2 (inactive rhomboid protein 2, isoform 1), endogenously expressed on human cells (human, UniProt Q6PJF5 1-856); also: test concentration or dose not given here
T1 sequence: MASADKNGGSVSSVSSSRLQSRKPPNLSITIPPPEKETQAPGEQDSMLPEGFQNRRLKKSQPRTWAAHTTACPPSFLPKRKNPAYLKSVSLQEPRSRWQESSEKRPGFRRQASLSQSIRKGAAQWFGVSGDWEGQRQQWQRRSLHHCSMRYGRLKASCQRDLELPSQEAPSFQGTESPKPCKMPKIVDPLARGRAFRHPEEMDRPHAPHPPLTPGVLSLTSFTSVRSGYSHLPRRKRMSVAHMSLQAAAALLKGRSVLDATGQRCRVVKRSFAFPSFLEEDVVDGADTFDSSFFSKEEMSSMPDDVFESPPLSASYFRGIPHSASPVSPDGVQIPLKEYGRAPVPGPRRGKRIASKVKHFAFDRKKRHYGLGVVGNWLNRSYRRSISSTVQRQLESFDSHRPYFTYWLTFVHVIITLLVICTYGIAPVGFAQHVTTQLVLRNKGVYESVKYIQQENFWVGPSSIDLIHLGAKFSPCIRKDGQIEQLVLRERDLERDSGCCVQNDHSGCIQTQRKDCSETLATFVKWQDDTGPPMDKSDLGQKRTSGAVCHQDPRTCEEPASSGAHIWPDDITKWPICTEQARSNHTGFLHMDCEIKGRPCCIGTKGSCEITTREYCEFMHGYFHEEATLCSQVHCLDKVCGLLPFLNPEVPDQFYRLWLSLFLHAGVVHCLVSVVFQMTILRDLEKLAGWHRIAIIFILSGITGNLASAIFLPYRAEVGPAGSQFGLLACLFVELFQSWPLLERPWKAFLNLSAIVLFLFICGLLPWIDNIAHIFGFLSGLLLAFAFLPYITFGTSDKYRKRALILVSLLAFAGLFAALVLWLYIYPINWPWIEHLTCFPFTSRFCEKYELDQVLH
PROCEDURE_DETAILS: cell-based or functional assay
OBSERVED_PROPERTY: inhibition of LPS-induced release of TNFα from THP-1 cells, recombinant antibody (% inhibition)

{"columns": ["BINDER", "UNIT_TEXT", "EXPERIMENTAL_VALUE"],
 "data": [
  ["antibody 3 (antibody, V domains shown, Mouse IgG, kappa light chain; also called clone #3; purified antibody 3) VH: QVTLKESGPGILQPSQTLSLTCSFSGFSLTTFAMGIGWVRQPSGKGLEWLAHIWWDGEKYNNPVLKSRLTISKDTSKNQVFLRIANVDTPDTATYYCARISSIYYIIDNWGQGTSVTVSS VL: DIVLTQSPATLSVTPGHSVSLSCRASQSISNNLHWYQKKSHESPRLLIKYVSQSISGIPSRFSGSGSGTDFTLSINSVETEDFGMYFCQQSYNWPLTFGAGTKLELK", "% inhibition", 59.9],
  ["antibody 16 (antibody, V domains shown, Mouse IgG, kappa light chain; also called clone #16; m16) VH: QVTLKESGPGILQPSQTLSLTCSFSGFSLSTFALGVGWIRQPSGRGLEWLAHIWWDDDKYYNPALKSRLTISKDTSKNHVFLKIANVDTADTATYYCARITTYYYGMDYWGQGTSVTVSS VL: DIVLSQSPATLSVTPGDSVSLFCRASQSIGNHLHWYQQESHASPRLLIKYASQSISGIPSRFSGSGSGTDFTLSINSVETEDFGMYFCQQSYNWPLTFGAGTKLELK", "% inhibition", 70.7],
  ["antibody 56 (antibody, V domains shown, Mouse IgG, kappa light chain; also called clone #56) VH: QVTLKESGPGILQPSQTLSLTCSFSGFSLSTFGMGVGWIRQPSGKGLEWLTNIWWDDDKYYNSVLKSRLTISKDTSKNQVFLKIANVDTADTATYYCARIAAYGSNYWYFDVWGTGTTVTVSS VL: QIVLTQSPAIMSASPGEKVTMTCSASSSVSYMYWYQQKPGSSPRVLIYDTSNLSSGVPVRFSGSGSGTSYSLTISRMEAEDAATYYCQQWSSYPLTFGAGTKLELK", "% inhibition", 65.8]
]}
